Assay: RP, Waters ACQUITY UPLC BEH C18, 100 × 1 mm, 1.7 µm, 50 °C, 0.3 mL/min, estimated dead time 0.17 min; A: water + 10 mM ammonium bicarbonate; B: 10% water + 90% methanol + 10 mM ammonium bicarbonate; gradient (min/%B) 0/0 15/100 21/100 22/0 30/0
Conditions: stereoisomer not certain
What LC retention time was measured for each of the following?
Numbers only; they are read as min.

Q: Using the record for CON=C(C(=O)OC)c1ccccc1COc1ccccc1C , report its LC retention time.
Ans: 15.8

Q: Using the record for Oc1ccc(C(F)(F)F)cc1 , report its LC retention time.
Ans: 12.6

Q: Using the record for CC(COc1ccccc1Cc1ccccc1)N1CCCCC1 (stereo not given) , report its LC retention time.
Ans: 18.2

Q: Using the record for CCNc1nc(Cl)nc(NC(C)C)n1 , report its LC retention time.
Ans: 13.1

Q: Using the record for CC1CCN(CCCC(=O)c2ccc(F)cc2)CC1 , report its LC retention time.
Ans: 15.4
